Provenance of the data: patent US20210040062A1

Here's a batch of compounds along with measured pIC50 for human CYP4A11 (Homo sapiens, UniProt Q02928).
pIC50: −log10 of the molar value.
endpoint: pIC50

| compound | system.tested | endpoint | measured.result |
| --- | --- | --- | --- |
| CC(C)OC(=O)N1CC(S(=O)(=O)N2CCC[C@@H](COc3ccc(-c4ccn[nH]4)nc3)C2)C1 | human CYP4A11 (Homo sapiens, UniProt Q02928) | pIC50 | 7.29 |
| CC(=O)NCCC(=O)N1CCC[C@@H](COc2ccc(-c3ccn[nH]3)nc2)C1 | human CYP4A11 (Homo sapiens, UniProt Q02928) | pIC50 | 6.19 |
| CC(C)OC(=O)N1CCC[C@@H](COc2ccc(-c3ccn[nH]3)nc2)C1 | human CYP4A11 (Homo sapiens, UniProt Q02928) | pIC50 | 6.68 |
| O=C(CC1CCCCC1)N1CCC[C@@H](COc2ccc(-c3ccn[nH]3)nc2)C1 | human CYP4A11 (Homo sapiens, UniProt Q02928) | pIC50 | 6.34 |
| COC(=O)N1CCC(CCOc2cnc(-c3ccn[nH]3)c(F)c2)CC1 | human CYP4A11 (Homo sapiens, UniProt Q02928) | pIC50 | 7.19 |

1: CC(=O)N1CCC(COc2ccc(-n3cnnc3)nc2)CC1
2: CC(=O)N1CCC(COc2ccc(-c3[nH]ncc3F)nc2)CC1
3: CCc1cccc(COc2ccc(-c3ccn[nH]3)nc2)c1 [Reference Example 53-2]
Q: Ordering criterion: pIC50; begin with the maximum. Answer format: the labels, in the requested order.
Result: 2, 3, 1

* * *

Biological target: UniProtKB P78329
endpoint: IC50 (nM)

These recorded examples may help you get a feel for the data.
| test.smiles | IC50 / nM |
| --- | --- |
| CC(C)OC(=O)NCCC(=O)N1CCC[C@@H](COc2ccc(-c3ccn[nH]3)nc2)C1 | 27 |
| O=S(=O)(C1CC1)N1CCC[C@@H](COc2cnc(-c3ccn[nH]3)c(F)c2)C1 | 38 |
| Clc1cn[nH]c1-c1ccc(OCCC2CCOCC2)cn1 | 170 |

P: CNC(=O)N1CCC[C@@H](COc2ccc(-c3ccn[nH]3)nc2)C1
Q: CN(C)S(=O)(=O)N1CCC[C@@H](COc2ccc(-c3ccn[nH]3)nc2)C1
Q: I'm curious, which of these has a smaller IC50 number: P or Q ? Identify your pick by its label.
Result: Q
(Q: 73 nM, P: 570 nM)

* * *

Biological target: UniProt P78329
endpoint: IC50 (nM)

| molecule | measured.result |
| --- | --- |
| Fc1ccc(COc2ccc(-c3ccn[nH]3)nc2)cc1C(F)(F)F [54-8] | 21 |
| CC(C)(C)OC(=O)N1CC(C(=O)N2CCC[C@@H](COc3ccc(-c4ccn[nH]4)nc3)C2)C1 [Example 3-46] | 23 |
| COC(=O)N1CCC(CCOc2ccc(-c3[nH]ncc3C)nc2)CC1 [Example 1-40] | 23 |

* * *

Target: human CYP4A11 (Homo sapiens, UniProt Q02928)
pIC50: −log10 of the molar value.
endpoint: pIC50

| test.smiles | measured.result |
| --- | --- |
| CC(C)OC(=O)N1CCC(CCOc2ccc(-c3ccn[nH]3)nc2)CC1 | 6.72 |
| CS(=O)(=O)c1cccc(COc2ccc(-c3c[nH]nn3)nc2)c1 | 5.62 |

A: CN(C)S(=O)(=O)N1CCC[C@@H](COc2ccc(-c3ccn[nH]3)nc2)C1
B: CC(=O)N1CCC[C@H](COc2ccc(-c3ccn[nH]3)nc2)C1
Q: I'm curious, which of these has a smaller pIC50 number: A or B ? Identify your pick by its label.
Result: B

1: O=C(c1cc(CO)ccn1)N1CCC[C@@H](COc2ccc(-c3ccn[nH]3)nc2)C1
2: O=C(CS(=O)(=O)c1cccc(COc2ccc(-c3ccn[nH]3)nc2)c1)N1CCCC1
3: CCOC(=O)NCCS(=O)(=O)N1CCC[C@H](COc2ccc(-c3ccn[nH]3)nc2)C1
4: CC(=O)N1CCC(COc2ccc(-c3c[nH]nn3)nc2)CC1
5: CC(=O)N1CC[C@@H](COc2ccc(-c3ccn[nH]3)nc2)C1
Q: Please produce an ascending ranking of these compounds based on pIC50. Answer format: the labels, in the requested order.
Result: 4, 5, 1, 2, 3

a: O=C(c1ccccc1)N1CCC(CCOc2ccc(-c3ccn[nH]3)nc2)CC1
b: FC(F)(F)Sc1cccc(COc2ccc(-c3ccn[nH]3)nc2)c1
Q: Lab note: check whether a or b shows the higher recorded pIC50. Identify your pick by its label.
Result: b

P: CC(C)C(=O)N1CCC(CCOc2ccc(-c3ccn[nH]3)nc2)CC1
Q: CC1(OC(=O)NCCC(=O)N2CCC[C@@H](COc3ccc(-c4ccn[nH]4)nc3)C2)CC1
Q: Lab note: check whether P or Q shows the higher recorded pIC50. Identify your pick by its label.
Result: Q

* * *

Target: human CYP4F2 (Homo sapiens)
Sequence (P78329 5-520): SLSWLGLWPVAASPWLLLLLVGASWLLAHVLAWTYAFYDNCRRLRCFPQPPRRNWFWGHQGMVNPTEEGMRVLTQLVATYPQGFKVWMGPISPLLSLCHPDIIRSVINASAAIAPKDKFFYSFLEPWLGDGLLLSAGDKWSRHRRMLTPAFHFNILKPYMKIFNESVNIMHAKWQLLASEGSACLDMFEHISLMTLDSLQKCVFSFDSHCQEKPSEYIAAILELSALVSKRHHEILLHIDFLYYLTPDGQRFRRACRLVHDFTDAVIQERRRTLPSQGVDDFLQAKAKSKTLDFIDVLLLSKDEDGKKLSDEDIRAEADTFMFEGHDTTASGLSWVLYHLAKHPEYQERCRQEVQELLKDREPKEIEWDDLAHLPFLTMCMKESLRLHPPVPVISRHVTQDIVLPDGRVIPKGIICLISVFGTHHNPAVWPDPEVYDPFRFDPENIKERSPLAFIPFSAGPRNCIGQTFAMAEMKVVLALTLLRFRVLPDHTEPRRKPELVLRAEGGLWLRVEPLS
pIC50: −log10 of the molar value.
endpoint: pIC50

These recorded examples may help you get a feel for the data.
| test.smiles | endpoint | measured.result |
| --- | --- | --- |
| Fc1cc(F)cc(COc2ccc(-c3ccn[nH]3)nc2)c1 | pIC50 | 6.89 |
| CC(=O)N(C)[C@H]1CC[C@@H](COc2ccc(-c3ccn[nH]3)nc2)CC1 | pIC50 | 6.59 |
| O=C([C@H]1CC[C@@H](O)CC1)N1CCC[C@@H](COc2ccc(-c3ccn[nH]3)nc2)C1 | pIC50 | 6.10 |
| CCOC(=O)NCCS(=O)(=O)N1CCC[C@H](COc2ccc(-c3ccn[nH]3)nc2)C1 | pIC50 | 7.43 |
| CC1(OC(=O)NCCC(=O)N2CCC[C@@H](COc3ccc(-c4ccn[nH]4)nc3)C2)CC1 | pIC50 | 7.35 |

a: CC(=O)N1CCC(COc2cnc(-c3[nH]ncc3C)c(F)c2)CC1
b: Clc1cccc(COc2ccc(-c3ccn[nH]3)nc2)c1
Q: Lab note: check whether a or b shows the higher recorded pIC50. Identify your pick by its label.
Result: b

P: O=S(=O)(N1CCCCC1)N1CCC[C@@H](COc2ccc(-c3ccn[nH]3)nc2)C1
Q: CCCCCc1cccc(COc2ccc(-c3ccn[nH]3)nc2)c1
Q: Lab note: check whether P or Q shows the higher recorded pIC50. Identify your pick by its label.
Result: P
(P: 8.37, Q: 7.49)

* * *

Protein target, amino acids: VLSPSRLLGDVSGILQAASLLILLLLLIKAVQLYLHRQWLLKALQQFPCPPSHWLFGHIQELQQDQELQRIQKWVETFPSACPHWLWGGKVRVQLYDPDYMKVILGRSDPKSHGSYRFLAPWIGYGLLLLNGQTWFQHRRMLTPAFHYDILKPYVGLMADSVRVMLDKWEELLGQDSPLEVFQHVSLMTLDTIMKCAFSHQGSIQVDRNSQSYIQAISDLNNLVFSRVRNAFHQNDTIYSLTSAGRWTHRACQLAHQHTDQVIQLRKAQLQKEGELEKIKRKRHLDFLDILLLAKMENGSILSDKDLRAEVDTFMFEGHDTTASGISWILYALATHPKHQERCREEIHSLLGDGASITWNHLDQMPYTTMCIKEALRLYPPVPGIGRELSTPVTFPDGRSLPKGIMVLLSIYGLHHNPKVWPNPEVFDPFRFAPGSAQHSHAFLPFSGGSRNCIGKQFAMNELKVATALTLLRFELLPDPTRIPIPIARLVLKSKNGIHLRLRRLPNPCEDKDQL
pIC50: −log10 of the molar value.
endpoint: pIC50

These recorded examples may help you get a feel for the data.
| test.smiles | pIC50 |
| --- | --- |
| O=C(OCc1ccccc1)N1CC(S(=O)(=O)N2CCC[C@@H](COc3ccc(-c4ccn[nH]4)nc3)C2)C1 | 7.77 |
| COC(=O)N1CCC[C@H](COc2ccc(-c3ccn[nH]3)nc2)C1 | 6.51 |

P: CC(=O)N1CCC(COc2ccc(-n3ccnn3)nc2)CC1
Q: CCCCCc1cccc(COc2ccc(-c3ccn[nH]3)nc2)c1
Q: Lab note: check whether P or Q shows the higher recorded pIC50. Identify your pick by its label.
Result: Q
(Q: 6.34, P: 5.89)

* * *

Here's a batch of molecules along with measured IC50 for human CYP4A11 (Homo sapiens, UniProt Q02928).
endpoint: IC50 (nM)

| molecule | measured.result |
| --- | --- |
| CN(C)S(=O)(=O)N1CC[C@@H](COc2cnc(-c3ccn[nH]3)c(F)c2)C1 | 48 |
| FC(F)(F)c1ccc(COc2ccc(-c3ccn[nH]3)nc2)cc1 | 1200 |
| CC(C)C(=O)N1CCC(COc2ccc(-c3ccn[nH]3)nc2)CC1 | 530 |
| Cc1cn[nH]c1-c1ccc(OC[C@@H]2CCN(S(=O)(=O)C3CC3)C2)cn1 | 93 |

1: CS(=O)(=O)N1CCC(CCOc2ccc(-c3ccn[nH]3)nc2)CC1
2: O=S(=O)(CC1CC1)c1cc(COc2ccc(-c3ccn[nH]3)nc2)ccn1
Q: I'm curious, which of these has a smaller IC50 number: 1 or 2 ? Identify your pick by its label.
Result: 2
(2: 30 nM, 1: 560 nM)

1: CC(=O)N(C)[C@H]1C[C@H](COc2ccc(-c3ccn[nH]3)nc2)C1
2: O=C(COc1ccccc1)N1CCC[C@@H](COc2ccc(-c3ccn[nH]3)nc2)C1
3: CC(CO)(CO)C(=O)N1CCC[C@@H](COc2ccc(-c3ccn[nH]3)nc2)C1
4: CS(=O)(=O)c1cccc(COc2ccc(-c3[nH]ncc3CO)nc2)c1
5: FC(F)(F)Oc1ccc(COc2ccc(-c3ccn[nH]3)nc2)cc1
Q: Please produce an ascending ranking of these molecules based on IC50. Answer format: the labels, in the requested order.
Result: 2, 3, 4, 5, 1
(2: 79 nM, 3: 310 nM, 4: 550 nM, 5: 1500 nM, 1: 2700 nM)

A: CC(C)S(=O)(=O)N1CC(COc2ccc(-c3ccn[nH]3)nc2)C1
B: Nc1cccc(COc2ccc(-c3ccn[nH]3)nc2)c1
C: CC(=O)NCC(=O)N1CCC[C@@H](COc2ccc(-c3ccn[nH]3)nc2)C1
Q: Ordering criterion: IC50; begin with the maximum. Answer format: the labels, in the requested order.
Result: A, C, B
(A: 2300 nM, C: 1200 nM, B: 620 nM)
